procedure_text: Cytotoxicity against Wistar rat isolated peritoneal cells assessed as reduction in cell viability up to 60 uM measured after 30 mins
Assay type: cell-based
conditions_used: peritoneal macrophage cell, 0.5 h
Numbered stars: 1 amine (or outer) side, 2 acyl side, 3 side chain; on linkers, the order of the positions; unused ones are H or OH. Bridge positions count the residues as written; N and C are the ends. Square brackets hold non-standard residues; d marks the D form. Peptide text beside a SMILES is read from it. * marks the point of attachment. Trp(5-F) = N[C@@H](Cc1c[nH]c2ccc(F)cc12)C(=O)O; mXylylene = c1cc(C[*:1])cc(C[*:2])c1; αMeP = C[C@@]1(C(=O)O)CCCN1; X2 = COCCOCCOCCOCCC(=O)*; Nva = CCC[C@H](N)C(=O)O; Mpa = O=C(O)CCS
property_measured: Activity

COCCOCCOCCOCCC(=O)NCCCC[C@@H]1NC(=O)CCSCc2cccc(c2)CSC[C@@H](C(N)=O)NC(=O)[C@]2(C)CCCN2C(=O)[C@H](Cc2ccc(O)cc2)NC(=O)[C@H](Cc2cnc[nH]2)NC(=O)[C@H](CC(=O)O)NC(=O)[C@H](Cc2c[nH]c3ccc(F)cc23)NC(=O)[C@H](Cc2c[nH]c3ccc(F)cc23)NC(=O)CNC1=O ([Mpa]K(X2)G[Trp(5-F)][Trp(5-F)]DHY[αMeP]C-NH2; linker 1-10 via mXylylene) ... Non-Toxic
NCCCC[C@@H]1NC(=O)CCSCc2cccc(c2)CSC[C@@H](C(N)=O)NC(=O)[C@@H]2CCCN2C(=O)[C@H](Cc2ccc(O)cc2)NC(=O)[C@H](Cc2c[nH]cn2)NC(=O)[C@H](CC(=O)O)NC(=O)[C@H](Cc2c[nH]c3ccc(F)cc23)NC(=O)[C@H](Cc2c[nH]c3ccc(F)cc23)NC(=O)CNC1=O ... Non-Toxic
CCC[C@@H]1NC(=O)CCSCc2cccc(c2)CSC[C@@H](C(N)=O)NC(=O)[C@]2(C)CCCN2C(=O)[C@H](Cc2ccc(O)cc2)NC(=O)[C@H](Cc2cnc[nH]2)NC(=O)[C@H](CC(=O)O)NC(=O)[C@H](Cc2c[nH]c3ccc(F)cc23)NC(=O)[C@H](Cc2c[nH]c3ccc(F)cc23)NC(=O)CNC1=O ([Mpa][Nva]G[Trp(5-F)][Trp(5-F)]DHY[αMeP]C-NH2; linker 1-10 via mXylylene) ... Non-Toxic

----------
target: Chymotrypsin-like elastase family member 1 (Sus scrofa, UniProt P00772)
Sequence (P00772 whole entry): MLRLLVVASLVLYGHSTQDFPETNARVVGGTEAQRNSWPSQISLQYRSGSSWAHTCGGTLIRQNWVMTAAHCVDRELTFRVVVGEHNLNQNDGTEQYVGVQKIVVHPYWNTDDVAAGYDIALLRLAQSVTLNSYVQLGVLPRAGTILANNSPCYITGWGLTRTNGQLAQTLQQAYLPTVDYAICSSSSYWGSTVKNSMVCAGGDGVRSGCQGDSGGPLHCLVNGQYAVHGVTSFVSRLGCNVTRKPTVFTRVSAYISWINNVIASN
procedure_text: Enzymatic stability assessed as porcine type 4 pancreatic elastase-mediated compound hydrolysis by measuring parent compound remaining at 100 uM incubated for 1 hr by LC-MS/MS analysis
Format: ADME
conditions_used: pig, read-out: Stabilty
Numbered stars: 1 amine (or outer) side, 2 acyl side, 3 side chain; on linkers, the order of the positions; unused ones are H or OH. Square brackets hold non-standard residues; d marks the D form. Peptide text beside a SMILES is read from it. Trp(5-F) = N[C@@H](Cc1c[nH]c2ccc(F)cc12)C(=O)O; X3 = O=C(CCSCc1cc(F)cc(CSCCN[*:1])c1)[*:2]; Lys(Me3) = C[N+](C)(C)CCCC[C@H](N)C(=O)O; X1 = O=C(CCSCc1cccc(CSCCN[*:1])c1)[*:2]; αMeP = C[C@@]1(C(=O)O)CCCN1
property_measured: remaining at 1 h, 100 µM (%)
Report as a plain number; the unit % is understood.

C[C@H]1NC(=O)[C@H](CCCCN)NC(=O)CCSCc2cc(F)cc(c2)CSCCNC(=O)[C@]2(C)CCCN2C(=O)[C@H](Cc2ccc(O)cc2)NC(=O)[C@H](Cc2cnc[nH]2)NC(=O)[C@H](CC(=O)O)NC(=O)[C@H](Cc2c[nH]c3ccc(F)cc23)NC(=O)[C@H](Cc2c[nH]c3ccc(F)cc23)NC1=O (cyclo(DHY[αMeP][X3]K[dA][Trp(5-F)][Trp(5-F)])) ... 96.5

Item COc1ccc(C[C@@H]2NC(=O)[C@H]([C@@H](C)O)NC(=O)[C@@H]3CCC(=O)NCc4cccc(c4)C[C@H](NC(=O)[C@@H](C)NC(=O)[C@H](C)NC(=O)CCSCc4cccc(c4)CSCCNC(=O)[C@]4(C)CCCN4C2=O)C(=O)N[C@@H](Cc2c[nH]c4ccc(F)cc24)C(=O)N3)cc1 has what recorded remaining at 1 h, 100 µM?
100

Do the same for COc1ccc(C[C@@H]2NC(=O)[C@H](Cc3cnc[nH]3)NC(=O)[C@H](CC(=O)O)NC(=O)[C@H](Cc3c[nH]c4ccc(F)cc34)NC(=O)[C@H](Cc3c[nH]c4ccc(F)cc34)NC(=O)[C@@H](C)NC(=O)[C@H](CCCC[N+](C)(C)C)NC(=O)CCSCc3cccc(c3)CSCCNC(=O)[C@]3(C)CCCN3C2=O)cc1 (cyclo(DHY(Me)[αMeP][X1][Lys(Me3)][dA][Trp(5-F)][Trp(5-F)])) please
68.2

----------
procedure_text: Half life in C57BL/6 mouse whole blood at 100 uM by LC-MS/MS analysis
Assay type: ADME, tissue-based
The compounds listed here are annotated with their half-life at 100 µM.

Item COc1ccc(C[C@@H]2NC(=O)[C@H]([C@@H](C)OC)NC(=O)[C@@H]3CCC(=O)NCc4cccc(c4)C[C@H](NC(=O)[C@@H](C)NC(=O)[C@H](C)NC(=O)CCSCc4cccc(c4)CSCCNC(=O)[C@]4(C)CCCN4C2=O)C(=O)N[C@@H](Cc2c[nH]c4ccc(F)cc24)C(=O)N3C)cc1 has what recorded half-life at 100 µM?
> 360 min

Do the same for COc1ccc(C[C@@H]2NC(=O)[C@H]([C@@H](C)O)NC(=O)[C@@H]3CCC(=O)NCc4cccc(c4)C[C@H](NC(=O)[C@@H](C)NC(=O)[C@H](C)NC(=O)CCSCc4cccc(c4)CSCCNC(=O)[C@]4(C)CCCN4C2=O)C(=O)N[C@@H](Cc2c[nH]c4ccc(F)cc24)C(=O)N3)cc1 please
> 360 min

----------
target: PCSK9/LDLR (Homo sapiens)
Sequence (Q8NBP7 31-152 limits assumed): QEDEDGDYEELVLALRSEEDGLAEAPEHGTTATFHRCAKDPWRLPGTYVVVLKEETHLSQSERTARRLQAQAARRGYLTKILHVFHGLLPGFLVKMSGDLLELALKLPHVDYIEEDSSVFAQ
Sequence (Q8NBP7 153-692 limits assumed): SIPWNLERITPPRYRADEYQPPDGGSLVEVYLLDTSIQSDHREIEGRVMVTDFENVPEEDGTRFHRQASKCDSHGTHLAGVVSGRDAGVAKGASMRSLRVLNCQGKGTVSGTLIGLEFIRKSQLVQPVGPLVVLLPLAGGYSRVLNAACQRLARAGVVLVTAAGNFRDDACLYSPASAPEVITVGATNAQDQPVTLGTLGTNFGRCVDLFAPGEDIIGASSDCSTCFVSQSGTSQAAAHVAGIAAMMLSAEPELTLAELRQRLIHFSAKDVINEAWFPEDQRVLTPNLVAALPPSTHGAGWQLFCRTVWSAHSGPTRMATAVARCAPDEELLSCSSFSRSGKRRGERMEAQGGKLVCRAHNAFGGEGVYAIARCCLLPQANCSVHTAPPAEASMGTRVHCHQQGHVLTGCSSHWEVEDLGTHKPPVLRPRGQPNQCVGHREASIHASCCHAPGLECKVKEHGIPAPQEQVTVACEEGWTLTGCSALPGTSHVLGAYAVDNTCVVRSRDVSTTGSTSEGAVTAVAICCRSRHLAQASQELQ
Sequence (P01130 22-860 partner limits assumed): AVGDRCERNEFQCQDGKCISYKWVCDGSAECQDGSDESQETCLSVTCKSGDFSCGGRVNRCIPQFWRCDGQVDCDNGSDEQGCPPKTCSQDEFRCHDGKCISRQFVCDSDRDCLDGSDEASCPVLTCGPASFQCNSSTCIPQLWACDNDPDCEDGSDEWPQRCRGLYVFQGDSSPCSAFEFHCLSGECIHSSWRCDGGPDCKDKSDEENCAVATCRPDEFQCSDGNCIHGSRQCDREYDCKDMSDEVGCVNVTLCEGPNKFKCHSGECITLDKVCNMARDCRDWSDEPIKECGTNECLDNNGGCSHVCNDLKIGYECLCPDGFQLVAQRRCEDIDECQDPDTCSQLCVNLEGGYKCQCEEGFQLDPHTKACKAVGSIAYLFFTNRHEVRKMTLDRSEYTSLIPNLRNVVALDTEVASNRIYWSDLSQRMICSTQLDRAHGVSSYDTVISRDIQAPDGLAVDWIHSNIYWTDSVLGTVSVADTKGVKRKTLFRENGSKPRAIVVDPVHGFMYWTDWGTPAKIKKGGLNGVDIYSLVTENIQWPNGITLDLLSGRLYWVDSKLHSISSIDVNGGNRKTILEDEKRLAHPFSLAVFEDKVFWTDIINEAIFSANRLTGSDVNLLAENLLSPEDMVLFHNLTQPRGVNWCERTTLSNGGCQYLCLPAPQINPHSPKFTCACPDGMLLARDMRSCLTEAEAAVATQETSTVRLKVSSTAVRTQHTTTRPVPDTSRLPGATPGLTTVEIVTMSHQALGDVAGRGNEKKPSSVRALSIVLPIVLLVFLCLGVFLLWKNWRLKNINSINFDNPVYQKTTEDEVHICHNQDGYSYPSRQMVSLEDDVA
procedure_text: Inhibition of avi-tagged-biotinylated human PCSK9 interaction with His-tagged human LDLR EGFa domain by LANCE Ulight Streptavidin based TR-FRET assay
Numbered stars: 1 amine (or outer) side, 2 acyl side, 3 side chain; on linkers, the order of the positions; unused ones are H or OH. Bridge positions count the residues as written; N and C are the ends. Square brackets hold non-standard residues; d marks the D form. Peptide text beside a SMILES is read from it. ξ: configuration not given here. Trp(5-F) = N[C@@H](Cc1c[nH]c2ccc(F)cc12)C(=O)O; X1 = O=C(CCSCc1cccc(CSCCN[*:1])c1)[*:2]; mXylylene = c1cc(C[*:1])cc(C[*:2])c1; ξhPhe = NC(CCc1ccccc1)C(=O)O; αMeP = C[C@@]1(C(=O)O)CCCN1; Orn = NCCC[C@H](N)C(=O)O; Mpa = O=C(O)CCS; Sar = CNCC(=O)O
property_measured: pKi
For clarity, pKi is expressed as the negative log10 of concentration in mol/L.

The examples below pair each entry with its known result.
C[C@@]12CCCN1C(=O)[C@H](Cc1ccc(O)cc1)NC(=O)[C@H](Cc1cnc[nH]1)NC(=O)[C@H](CC(=O)O)NC(=O)[C@H](Cc1c[nH]c3ccc(F)cc13)NC(=O)[C@H](Cc1c[nH]c3ccc(F)cc13)NC(=O)CNC(=O)[C@H](CCCN)NC(=O)CCSCc1cccc(c1)CSC[C@@H](C(N)=O)NC2=O ([Mpa][Orn]G[Trp(5-F)][Trp(5-F)]DHY[αMeP]C-NH2; linker 1-10 via mXylylene) ... 6.88
C[C@@]12CCCN1C(=O)[C@H](Cc1ccc(O)cc1)NC(=O)[C@H](Cc1cnc[nH]1)NC(=O)[C@H](CC(=O)O)NC(=O)[C@H](Cc1c[nH]c3ccc(F)cc13)NC(=O)[C@H](Cc1c[nH]c3ccc(F)cc13)NC(=O)CNC(=O)[C@H](CCCCN)NC(=O)CCSCc1cccc(c1)CSCCNC2=O (cyclo(DHY[αMeP][X1]KG[Trp(5-F)][Trp(5-F)])) ... 7.58
CN1CC(=O)N[C@@H](Cc2c[nH]c3ccc(F)cc23)C(=O)N[C@@H](Cc2c[nH]c3ccc(F)cc23)C(=O)N[C@@H](CC(=O)O)C(=O)N[C@@H](Cc2cnc[nH]2)C(=O)N[C@@H](Cc2ccc(O)cc2)C(=O)N2CCC[C@H]2C(=O)N[C@H](C(N)=O)CSCc2cccc(c2)CSCCC(=O)N[C@@H](CCCCN)C1=O ([Mpa]K[Sar][Trp(5-F)][Trp(5-F)]DHYPC-NH2; linker 1-10 via mXylylene) ... 5.39

Form: Entry = NCCCC[C@@H]1NC(=O)CCSCc2cccc(c2)CSCCNC(=O)[C@@H]2CCCN2C(=O)[C@H](Cc2ccc(O)cc2)NC(=O)[C@H](Cc2c[nH]cn2)NC(=O)[C@H](CC(=O)O)NC(=O)[C@H](Cc2c[nH]c3ccc(F)cc23)NC(=O)[C@H](Cc2c[nH]c3ccc(F)cc23)NC(=O)CNC1=O (cyclo(DHYP[X1]KG[Trp(5-F)][Trp(5-F)])) | System = PCSK9/LDLR (Homo sapiens) | pKi = ____
6.60

Do the same for C[C@H]1NC(=O)[C@H](CCC(=O)O)NC(=O)CCSCc2cccc(c2)CSCCNC(=O)[C@]2(C)CCCN2C(=O)[C@H](Cc2ccc(O)cc2)NC(=O)[C@H](Cc2cnc[nH]2)NC(=O)[C@H](CC(=O)O)NC(=O)[C@H](Cc2c[nH]c3ccc(F)cc23)NC(=O)[C@H](Cc2c[nH]c3ccc(F)cc23)NC1=O please
6.69

Do the same for NCCCC[C@@H]1NC(=O)CCSCc2cccc(c2)CSC[C@@H](C(N)=O)NC(=O)[C@@H]2CCCN2C(=O)[C@H](Cc2ccc(O)cc2)NC(=O)[C@H](Cc2cnc[nH]2)NC(=O)[C@H](CC(=O)O)NC(=O)[C@H](Cc2c[nH]c3ccc(F)cc23)NC(=O)C(CCc2ccccc2)NC(=O)CNC1=O (stereo partly specified) ([Mpa]KG[ξhPhe][Trp(5-F)]DHYPC-NH2; linker 1-10 via mXylylene) please
5.66

Do the same for C[C@@H]1NC(=O)[C@@H]2CCCN2C(=O)[C@H](Cc2c[nH]c3ccc(F)cc23)NC(=O)[C@H](Cc2c[nH]c3ccc(F)cc23)NC(=O)CNC(=O)[C@H](CCCCN)NC(=O)CCSCc2cccc(c2)CSC[C@@H](C(N)=O)NC(=O)[C@]2(C)CCCN2C(=O)[C@H](Cc2ccc(O)cc2)NC1=O ([Mpa]KG[Trp(5-F)][Trp(5-F)]PAY[αMeP]C-NH2; linker 1-10 via mXylylene) please
7.05

Do the same for C[C@@H]1NC(=O)[C@H](Cc2c[nH]c3ccc(F)cc23)NC(=O)[C@H](Cc2c[nH]c3ccc(F)cc23)NC(=O)CNC(=O)[C@H](CCCCN)NC(=O)CCSCc2cccc(c2)CSC[C@@H](C(N)=O)NC(=O)[C@@H]2CCCN2C(=O)[C@H](Cc2ccc(O)cc2)NC(=O)[C@H](Cc2cnc[nH]2)NC1=O ([Mpa]KG[Trp(5-F)][Trp(5-F)]AHYPC-NH2; linker 1-10 via mXylylene) please
6.37

Do the same for C[C@@H]1NC(=O)CCSCc2cccc(c2)CSC[C@@H](C(N)=O)NC(=O)[C@@H]2CCCN2C(=O)[C@H](Cc2ccc(O)cc2)NC(=O)[C@H](Cc2cnc[nH]2)NC(=O)[C@H](CC(=O)O)NC(=O)[C@H](Cc2c[nH]c3ccc(F)cc23)NC(=O)[C@H](Cc2c[nH]c3ccc(F)cc23)NC(=O)CNC1=O ([Mpa]AG[Trp(5-F)][Trp(5-F)]DHYPC-NH2; linker 1-10 via mXylylene) please
6.41

Do the same for CCC[C@H]1NC(=O)[C@H](CCCCN)NC(=O)CCSCc2cccc(c2)CSCCNC(=O)[C@]2(C)CCCN2C(=O)[C@H](Cc2ccc(O)cc2)NC(=O)[C@H](Cc2cnc[nH]2)NC(=O)[C@H](CC(=O)O)NC(=O)[C@H](Cc2c[nH]c3ccc(F)cc23)NC(=O)[C@H](Cc2c[nH]c3ccc(F)cc23)NC1=O please
7.36
